Conditions: in isobutanol, 318.15 K
MEASUREMENT KIND: solubility (mole fraction)
// no unit string in output, number only

*Q* Looking for the measured solubility (mole fraction) of "O=[N+]([O-])c1cn[nH]c1[N+](=O)[O-]" , can you help?
*A* 0.486

###

Conditions: in epichlorohydrin, 313.15 K
MEASUREMENT KIND: solubility (mole fraction)
// response body must contain only the number

*Q* Given the compound "O=[N+]([O-])c1cn[nH]c1[N+](=O)[O-]" , what is its reported solubility (mole fraction)?
*A* 0.0582

###

Details: in THF, 288.15 K
MEASUREMENT KIND: solubility (mole fraction)

*Q* // solubility (mole fraction) lookup, key: "O=[N+]([O-])c1cn[nH]c1[N+](=O)[O-]"
*A* 0.525

###

Conditions: in isobutanol, 303.15 K
MEASUREMENT KIND: solubility (mole fraction)
The response must contain the number and no unit.

*Q* Which solubility (mole fraction) is reported for this compound? "O=[N+]([O-])c1cn[nH]c1[N+](=O)[O-]"
*A* 0.355

###

Settings: in isobutanol, 298.15 K
MEASUREMENT KIND: solubility (mole fraction)
Answer with a number only.

*Q* Return reported solubility (mole fraction); argument: "O=[N+]([O-])c1cn[nH]c1[N+](=O)[O-]"
*A* 0.329

###

Details: in 2-butanone, 293.15 K
MEASUREMENT KIND: solubility (mole fraction)

*Q* Consider the compound "O=[N+]([O-])c1cn[nH]c1[N+](=O)[O-]" and give its measured solubility (mole fraction).
*A* 0.476

###

Details: in water, 283.15 K
MEASUREMENT KIND: solubility (mole fraction)
When you answer, write just the number.

*Q* Record request: solubility (mole fraction) value, item "O=[N+]([O-])c1cn[nH]c1[N+](=O)[O-]"
*A* 0.002

###

Conditions: in water, 298.15 K
MEASUREMENT KIND: solubility (mole fraction)
Response field accepts a number only; no unit should be typed.

*Q* Recorded solubility (mole fraction) of "O=[N+]([O-])c1cn[nH]c1[N+](=O)[O-]" , please.
*A* 0.00529

###

Details: in ethyl acetate, 313.15 K
MEASUREMENT KIND: solubility (mole fraction)
Just the number.

*Q* Query (compound): "O=[N+]([O-])c1cn[nH]c1[N+](=O)[O-]" ; field requested: solubility (mole fraction)
*A* 0.163

###

Settings: in epichlorohydrin, 283.15 K
MEASUREMENT KIND: solubility (mole fraction)

*Q* Return reported solubility (mole fraction); argument: "O=[N+]([O-])c1cn[nH]c1[N+](=O)[O-]"
*A* 0.0361

###

Settings: in chloroform, 318.15 K
MEASUREMENT KIND: solubility (mole fraction)
Enter the number alone.

*Q* Requested read-out: solubility (mole fraction). Entry: "O=[N+]([O-])c1cn[nH]c1[N+](=O)[O-]"
*A* 0.00476

###

Conditions: in ethyl acetate, 293.15 K
MEASUREMENT KIND: solubility (mole fraction)

*Q* Fill blank: measured solubility (mole fraction) of the compound "O=[N+]([O-])c1cn[nH]c1[N+](=O)[O-]" is ____.
*A* 0.0913

###

Conditions: in water, 288.15 K
MEASUREMENT KIND: solubility (mole fraction)

*Q* Param item = "O=[N+]([O-])c1cn[nH]c1[N+](=O)[O-]" ; retrieve measured solubility (mole fraction).
*A* 0.0032
